Sourced from patent US20140087995A1

- TARGET_ENTITY: T1, human calcitonin receptor (human, UniProt P30988 25-474)
- T1 construct: whole, on cells; Membranes in a scintillation proximity assay (Assay VII); also called hCTR; hCT
- T1 sequence (looked up): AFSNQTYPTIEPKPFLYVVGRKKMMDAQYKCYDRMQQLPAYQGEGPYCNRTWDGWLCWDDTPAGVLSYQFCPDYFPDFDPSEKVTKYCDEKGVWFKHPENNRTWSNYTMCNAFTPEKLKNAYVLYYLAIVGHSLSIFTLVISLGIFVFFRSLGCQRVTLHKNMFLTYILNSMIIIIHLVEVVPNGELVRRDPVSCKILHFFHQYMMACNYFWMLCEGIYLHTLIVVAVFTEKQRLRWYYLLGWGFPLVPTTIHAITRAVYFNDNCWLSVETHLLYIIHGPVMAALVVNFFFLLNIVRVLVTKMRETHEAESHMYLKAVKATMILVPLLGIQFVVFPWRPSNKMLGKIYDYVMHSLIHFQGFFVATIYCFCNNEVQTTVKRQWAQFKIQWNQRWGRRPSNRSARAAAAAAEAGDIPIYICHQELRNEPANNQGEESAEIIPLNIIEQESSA
- MEASUREMENT_PROTOCOL: ratio of IC50 at human calcitonin receptor to IC50 at human amylin receptor (reference), SPA binding assays
Numbered stars: 1 amine (or outer) side, 2 acyl side, 3 side chain; on linkers, the order of the positions; unused ones are H or OH. Bridge positions count the residues as written; N and C are the ends. Side chains are listed from the residue outwards. Ends that are not written are not given here. * marks the point of attachment. C20 diacid = O=C(O)CCCCCCCCCCCCCCCCCCC(=O)*; γGlu = O=C(O)[C@H](CCC(=O)[*:2])N[*:1]
OBSERVATION_TYPE: Ratio hCT/hAmylin binding

[P] K([γGlu-C20 diacid])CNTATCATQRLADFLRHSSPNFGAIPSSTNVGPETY-NH2 (disulfide 2-7 (inferred))
[Q] K([γGlu-γGlu-C20 diacid])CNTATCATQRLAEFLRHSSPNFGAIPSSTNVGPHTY-NH2 (disulfide 2-7 (inferred))
[R] K([γGlu-C20 diacid])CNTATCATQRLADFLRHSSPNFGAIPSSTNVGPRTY-NH2 (disulfide 2-7 (inferred))
INPUT: Task for the reader: place the binders above in descending order according to recorded Ratio hCT/hAmylin binding. Answer format: list of labels, ordered as asked.
OUTPUT: R, Q, P
(R: 151, Q: 27.3, P: 16.7)

[A] K([γGlu-γGlu-C20 diacid])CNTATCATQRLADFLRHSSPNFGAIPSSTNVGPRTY-NH2 (disulfide 2-7 (inferred), also called compound 130)
[B] K([γGlu-C20 diacid])CNTATCATQRLAEFLRHSSPNFGAIPSSTNVGSHTY-NH2 (disulfide 2-7 (inferred))
[C] K([γGlu-γGlu-C20 diacid])CNTATCATQRLAEFLRHSSPNFGAIPSSTNVGPNTF-NH2 (disulfide 2-7 (inferred))
INPUT: Output the entries ranked by Ratio hCT/hAmylin binding from maximum down to minimum. Answer format: list of labels, ordered as asked.
OUTPUT: A, B, C
(A: 280, B: 26.4, C: 18)
